meta.source: patent EP4667458A1

Target: KRAS^G12C::SOS1 (Homo sapiens, UniProt Q07889)
Sequence (Q07889 whole entry, stated change not applied): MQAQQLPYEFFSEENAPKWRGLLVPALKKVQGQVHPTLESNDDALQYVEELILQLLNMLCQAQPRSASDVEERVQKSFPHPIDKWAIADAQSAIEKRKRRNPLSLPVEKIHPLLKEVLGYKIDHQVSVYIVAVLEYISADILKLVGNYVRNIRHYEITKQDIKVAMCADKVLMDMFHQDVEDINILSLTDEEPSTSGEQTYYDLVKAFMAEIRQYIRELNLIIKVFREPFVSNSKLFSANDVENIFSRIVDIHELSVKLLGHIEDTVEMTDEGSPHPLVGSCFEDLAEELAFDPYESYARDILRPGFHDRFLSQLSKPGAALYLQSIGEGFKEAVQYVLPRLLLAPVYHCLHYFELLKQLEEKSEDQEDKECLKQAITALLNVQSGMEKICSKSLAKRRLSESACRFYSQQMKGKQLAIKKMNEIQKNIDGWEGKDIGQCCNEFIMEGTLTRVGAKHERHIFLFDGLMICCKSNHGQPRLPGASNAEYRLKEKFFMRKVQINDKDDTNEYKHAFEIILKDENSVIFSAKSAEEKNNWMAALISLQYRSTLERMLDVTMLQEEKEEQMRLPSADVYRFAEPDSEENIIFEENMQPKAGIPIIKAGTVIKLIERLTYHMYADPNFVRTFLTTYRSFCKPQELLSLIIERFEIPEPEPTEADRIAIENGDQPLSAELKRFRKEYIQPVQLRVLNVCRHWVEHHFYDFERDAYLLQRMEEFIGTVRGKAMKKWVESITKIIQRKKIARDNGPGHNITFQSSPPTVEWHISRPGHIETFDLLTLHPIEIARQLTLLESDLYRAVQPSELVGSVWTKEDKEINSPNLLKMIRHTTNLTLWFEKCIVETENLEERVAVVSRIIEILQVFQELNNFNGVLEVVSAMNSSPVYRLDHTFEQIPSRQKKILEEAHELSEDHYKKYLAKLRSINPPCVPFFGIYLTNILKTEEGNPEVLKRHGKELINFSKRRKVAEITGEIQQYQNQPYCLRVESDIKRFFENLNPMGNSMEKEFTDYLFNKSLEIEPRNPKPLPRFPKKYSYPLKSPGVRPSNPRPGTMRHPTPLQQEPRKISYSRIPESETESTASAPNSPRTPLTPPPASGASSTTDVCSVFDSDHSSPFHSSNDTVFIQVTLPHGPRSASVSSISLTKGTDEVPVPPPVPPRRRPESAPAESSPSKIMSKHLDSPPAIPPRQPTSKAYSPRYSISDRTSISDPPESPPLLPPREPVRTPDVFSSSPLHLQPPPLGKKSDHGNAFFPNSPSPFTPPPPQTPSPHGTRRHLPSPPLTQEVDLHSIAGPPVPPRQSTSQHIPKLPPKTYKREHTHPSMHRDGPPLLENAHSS
Assay: KRAS G12C::SOS1 protein-protein interaction (PPI) inhibition assay (HTRF binding kit)
Reported values of IC50 for individual entries

Below: 2 molecules and their reported IC50.
{"testSmiles": "C[C@@H](NC(=O)c1ccc(=O)n(-c2cccc(CO)c2)n1)c1cc(N)cc(C(F)(F)F)c1", "IC50": "< 1000 nM"}
{"testSmiles": "C[C@@H](NC(=O)c1ccc(=O)n(-c2cccc(C(=O)NCCN(C)C)c2)n1)c1cc(N)cc(C(F)(F)F)c1", "IC50": "< 1000 nM"}

The record that follows has no IC50 shown yet.
// `CNCc1ccc(Cl)cc1-c1ccc([C@@H](C)NC(=O)c2ccc(=O)n(-c3cccnc3NC)n2)s1` : IC50 value = < 1000 nM
